# Tested on: P388 leukemia ip, CD2F1 mice, survival T/C
# assay: NCI In Vivo Anticancer Drug Screen. Data for tumor model P388 Leukemia (intraperitoneal) in CD2F1 (CDF1) mice
# appliedConditions: endpoint: median survival time; dose: 50.0 mg/kg/injection; schedule: Q01DX005 (ip); vehicle: saline with Tween-80; higher = longer survival
Toxic doses and inconclusive results are not listed.
# T/C annotations

compound: CC(C)(O)C#C[Si](C)(C)C
T/C: 98 % of control
--
compound: CNC(C)Cc1ccccc1 (stereo unspecified) (tested in a mixture with another compound)
T/C: 116 % of control
--
compound: O=C(O)Cc1csc(=S)n1-c1ccccc1
T/C: 97 % of control
--
compound: CCCNC(=O)c1ccccc1C(=O)NC1(C(=O)NCCC)CCCC1
T/C: 97 % of control
--
compound: CC(=O)Nc1ccc(S(=O)(=O)N/N=C\c2cc([N+](=O)[O-])ccc2O)cc1
T/C: 103 % of control
--
compound: CCCCCCCCCCN(CCCCCCCCCC)C(C)C(=O)c1ccc2cc(Br)c3ccccc3c2c1 (stereo unspecified)
T/C: 99 % of control

---

# T/C annotations
# Test system: P388 leukemia ip, CD2F1 mice, survival T/C
# assay: NCI In Vivo Anticancer Drug Screen. Data for tumor model P388 Leukemia (intraperitoneal) in CD2F1 (CDF1) mice
# appliedConditions: endpoint: median survival time; dose: 200.0 mg/kg/injection; schedule: Q01DX001 (ip); vehicle: saline; higher = longer survival
Inconclusive results and toxic doses are left out.

molecule: COC1=CCCC(C(C)=O)C1Sc1ccccc1 (configuration not stated)
T/C: 102 % of control

molecule: CC(=O)NC(N)=NC#N
T/C: 96 % of control

molecule: C/C(=N/NC(=O)c1ccccc1)C(=NO)/C(C)=N\NC(=O)c1ccccc1
T/C: 97 % of control

molecule: N#CCCNNc1ccccc1
T/C: 97 % of control

molecule: Cc1ccc(C(=O)N/N=C/c2cccc(C(N)=S)c2)cc1
T/C: 87 % of control

molecule: S=C(C(=S)N1CCOCC1)N1CCOCC1
T/C: 112 % of control

molecule: COC(=O)C1(C)CCCC2(C)c3cc(OC(C)=O)c(C(C)C)cc3CCC12 (configuration not stated)
T/C: 106 % of control

---

# Test system: P388 leukemia ip, CD2F1 mice, survival T/C
# assay: NCI In Vivo Anticancer Drug Screen. Data for tumor model P388 Leukemia (intraperitoneal) in CD2F1 (CDF1) mice
# appliedConditions: endpoint: median survival time; dose: 25.0 mg/kg/injection; schedule: Q01DX009 (ip); vehicle: distilled water + Tween-80; higher = longer survival
Inconclusive results and toxic doses are left out.
# T/C annotations
readoutKind: T/C

molecule: CC(Cl)CN=NNc1ccc(C#N)cc1 (configuration not stated)
obsValue: 100 % of control
//
molecule: O=C(Nc1cccc2ccccc12)c1cc2c(cc1Br)OCO2
obsValue: 95 % of control
//
molecule: C=C1C(=O)OC2C=CCC12 (configuration not stated)
obsValue: 107 % of control
//
molecule: C[Si](C)(C)ONC(=O)c1ccccc1
obsValue: 109 % of control
//
molecule: CCOC(=O)c1ccc(NN=NCCO)cc1
obsValue: 100 % of control
//
molecule: COc1ccc2ccc3c(c2c1)C(=O)C(CC(N)=O)C3 (configuration not stated)
obsValue: 93 % of control
//
molecule: CCOC(=O)/C(C#N)=C/Nc1cc(C(=O)OCC)cc2c(OC)c(OC)ccc12
obsValue: 93 % of control
//
molecule: CCCCCCC(=O)Oc1ccc[nH]c1=O
obsValue: 104 % of control
//
molecule: CC(=O)Oc1c([N+](=O)[O-])cccc1[N+](=O)[O-]
obsValue: 107 % of control
//
molecule: CC(C)NC(=O)OCc1c(COC(=O)NC(C)C)c(-c2ccc(F)cc2F)n2c1CCC2
obsValue: 99 % of control
//
molecule: CNC(=O)OCC1=C(COC(=O)NC)C2OC1C(C(=O)OC)=C2c1ccc(Cl)cc1 (configuration not stated)
obsValue: 88 % of control
//
molecule: [NH-]CC(=O)O.[NH-]CC(=O)O.[NH-]CC(=O)O.[NH-]CC(=O)O.[Pt+4]
obsValue: 94 % of control
